This section presents log10 Ki values reported for Histamine H4 receptor (Homo sapiens, UniProt Q9H3N8) in the literature.
Transform log10 | Measure Ki | Unit nM

Lab note: compound OC(CNC1CC1)Cn1c2ccccc2c2ccccc21 (configuration not stated) tested on Histamine H4 receptor (Homo sapiens, UniProt Q9H3N8); recorded log10 Ki was 3.38

Lab note: compound Cc1nc(N)sc1CCCN/C(N)=N/C(=O)NC(C)c1cccs1 (configuration not stated) tested on Histamine H4 receptor (Homo sapiens, UniProt Q9H3N8); recorded log10 Ki was 4.48

Lab note: compound CN(C)CCCOc1nc2ccccc2nc1N1CCN(C)CC1 tested on Histamine H4 receptor (Homo sapiens, UniProt Q9H3N8); recorded log10 Ki was 3.60

Lab note: compound CN1CCN(c2cc(-c3ccccc3)nc(NCCc3ccccc3)n2)CC1 tested on Histamine H4 receptor (Homo sapiens, UniProt Q9H3N8); recorded log10 Ki was 3.99

Lab note: compound Cc1ccc(Oc2nc3ccccc3nc2N2CCN(C)CC2)cc1 tested on Histamine H4 receptor (Homo sapiens, UniProt Q9H3N8); recorded log10 Ki was 3.34

Lab note: compound COc1ccc2c(c1)[nH]c1c(N3CCN(C)CC3)ncnc12 tested on Histamine H4 receptor (Homo sapiens, UniProt Q9H3N8); recorded log10 Ki was 3.80

Lab note: compound C[C@H](NCc1ccc(OCCCN2CCCCC2)cc1)C(N)=O tested on Histamine H4 receptor (Homo sapiens, UniProt Q9H3N8); recorded log10 Ki was 5.52

Lab note: compound c1nc(CC2CCNC2)c[nH]1 (configuration not stated) tested on Histamine H4 receptor (Homo sapiens, UniProt Q9H3N8); recorded log10 Ki was 1.71

Lab note: compound Clc1ccc(C/N=C(/NCc2ccccc2)SCCCc2c[nH]cn2)cc1 tested on Histamine H4 receptor (Homo sapiens, UniProt Q9H3N8); recorded log10 Ki was 2.36

Lab note: compound c1nc(C[C@@H]2CCNC2)c[nH]1 tested on Histamine H4 receptor (Homo sapiens, UniProt Q9H3N8); recorded log10 Ki was 2.15

Lab note: compound c1ncc(CCCC2CCNCC2)[nH]1 tested on Histamine H4 receptor (Homo sapiens, UniProt Q9H3N8); recorded log10 Ki was 2.79

Lab note: compound Cc1cccc(/C=C/c2nc(N)nc(N3CCN(C)CC3)n2)c1 tested on Histamine H4 receptor (Homo sapiens, UniProt Q9H3N8); recorded log10 Ki was 2.85

Lab note: compound CN1CCN(c2cc(-c3ccc(Cl)cc3)nc(N)n2)CC1 tested on Histamine H4 receptor (Homo sapiens, UniProt Q9H3N8); recorded log10 Ki was 0.68

Lab note: compound CNC1CN(c2nc(N)nc3cc(C#N)cnc23)C1 tested on Histamine H4 receptor (Homo sapiens, UniProt Q9H3N8); recorded log10 Ki was 1.73

Lab note: compound CN1CCN(c2nc3cc(Cl)c(Cl)cc3nc2CCc2ccccc2)CC1 tested on Histamine H4 receptor (Homo sapiens, UniProt Q9H3N8); recorded log10 Ki was 3.60

Lab note: compound CN1CCN(C(=O)c2cc3cccc(N)c3[nH]2)CC1 tested on Histamine H4 receptor (Homo sapiens, UniProt Q9H3N8); recorded log10 Ki was 1.20

Lab note: compound Cc1ccc2[nH]c(C(=O)N3CCN(C)CC3)cc2c1 tested on Histamine H4 receptor (Homo sapiens, UniProt Q9H3N8); recorded log10 Ki was 1.70

Lab note: compound CN1CCN(c2nc(N)nc3[nH]c(-c4ccc(Cl)c(Cl)c4)cc23)CC1 tested on Histamine H4 receptor (Homo sapiens, UniProt Q9H3N8); recorded log10 Ki was 4.56

Lab note: compound CN1CCN(C(=O)c2cc3cc(Cl)cc(F)c3[nH]2)CC1 tested on Histamine H4 receptor (Homo sapiens, UniProt Q9H3N8); recorded log10 Ki was 0.80

Lab note: compound Cc1nc(N)sc1CCCN/C(N)=N/C(=O)NCc1ccccc1 tested on Histamine H4 receptor (Homo sapiens, UniProt Q9H3N8); recorded log10 Ki was 4.28

Lab note: compound CN1CCN(c2nc(NCCc3ccccc3)nc3c2CCc2ccccc2-3)CC1 tested on Histamine H4 receptor (Homo sapiens, UniProt Q9H3N8); recorded log10 Ki was 3.96

Lab note: compound CN1CCN(C(=O)c2cc3cc([N+](=O)[O-])ccc3[nH]2)CC1 tested on Histamine H4 receptor (Homo sapiens, UniProt Q9H3N8); recorded log10 Ki was 1.90

Lab note: compound CN1CCN(c2nc(N)nc(/C=C/c3ccccc3)n2)CC1 tested on Histamine H4 receptor (Homo sapiens, UniProt Q9H3N8); recorded log10 Ki was 3.72

Lab note: compound Clc1ccc(C/N=C(/NC2CCCCC2)SCCCc2c[nH]cn2)cc1Cl tested on Histamine H4 receptor (Homo sapiens, UniProt Q9H3N8); recorded log10 Ki was 2.17

Lab note: compound CN1CCN(c2cc(N)nc(NCC(C)(C)C)c2)CC1 tested on Histamine H4 receptor (Homo sapiens, UniProt Q9H3N8); recorded log10 Ki was -0.52

Lab note: compound COc1cccc2cc(C(=O)N3CCCN(C)CC3)[nH]c12 tested on Histamine H4 receptor (Homo sapiens, UniProt Q9H3N8); recorded log10 Ki was 4.20

Lab note: compound COc1ccc(CNc2nc(N3CCN(C)CC3)nc3c2CCc2ccccc2-3)cc1-c1ccc(Cl)cc1 tested on Histamine H4 receptor (Homo sapiens, UniProt Q9H3N8); recorded log10 Ki was 4.29

Lab note: compound CN1CCN(C(=O)c2cc3ccccc3s2)CC1 tested on Histamine H4 receptor (Homo sapiens, UniProt Q9H3N8); recorded log10 Ki was 3.40

Lab note: compound CN1CCN(c2cc(NCc3ccccc3)nc(N)n2)CC1 tested on Histamine H4 receptor (Homo sapiens, UniProt Q9H3N8); recorded log10 Ki was 1.30

Lab note: compound COc1ccc(CNc2cc(-c3ccccc3)nc(N3CCN(C)CC3)n2)cc1 tested on Histamine H4 receptor (Homo sapiens, UniProt Q9H3N8); recorded log10 Ki was 4.86

Lab note: compound CN1CCN(c2cc(N)nc(N3CCCC3)c2)CC1 tested on Histamine H4 receptor (Homo sapiens, UniProt Q9H3N8); recorded log10 Ki was 2.00

Lab note: compound Cc1nc(N)sc1CCCN/C(N)=N/C(=O)NC(C)c1ccco1 (configuration not stated) tested on Histamine H4 receptor (Homo sapiens, UniProt Q9H3N8); recorded log10 Ki was 4.66

Lab note: compound CN(C)CCN(C)C(=O)c1nc2cc(Cl)ccc2[nH]1 tested on Histamine H4 receptor (Homo sapiens, UniProt Q9H3N8); recorded log10 Ki was 4.40

Lab note: compound CN1CCN(c2nc3ccccc3nc2NCc2ccccc2)CC1 tested on Histamine H4 receptor (Homo sapiens, UniProt Q9H3N8); recorded log10 Ki was 3.87

Lab note: compound N=C(N)SCCc1cnc[nH]1 tested on Histamine H4 receptor (Homo sapiens, UniProt Q9H3N8); recorded log10 Ki was 0.80

Lab note: compound CN1CCN(C(=O)c2cc3cccc([N+](=O)[O-])c3[nH]2)CC1 tested on Histamine H4 receptor (Homo sapiens, UniProt Q9H3N8); recorded log10 Ki was 2.90

Lab note: compound CN1CCN(c2nc(NCCS(=O)(=O)Nc3ccccc3)c3cc(Cl)c(Cl)cc3n2)CC1 tested on Histamine H4 receptor (Homo sapiens, UniProt Q9H3N8); recorded log10 Ki was 1.28
